The values you see were collected from patent US20190169308A1.

test-system: T1, human/mouse CD137 chimera 1551
T1 construct: on transfected FreeStyle 293-F cells
protocol-notes: flow cytometry, 293-F cells with CD137 chimera
What MFI/isotype control normalized to full-length human CD137 was measured for each of the following?

Lookup: I am curious: what MFI/isotype control normalized to full-length human CD137 value has been reported for 1204/1205 (antibody, V domains shown) VH: EVQLLESGGGLVQPGGSLRLSCAASGFTFSSYYMGWVRQAPGKGLEWVSGIGSYYGYTGYADSVKGRFTISRDNSKNTLYLQMNSLRAEDTAVYYCARAYYDYNYYYAYFDYWGQGTLVTVSS VL: DIQMTQSPSSLSASVGDRVTITCRASQSISSYLNWYQQKPGKAPKLLIYAASSLQSGVPSRFSGSGSGTDFTLTISSLQPEDFATYYCQQSVPHYPFTFGQGTKLEIK ?
Found: 0.11

Lookup: And for 1626/1627 (antibody, V domains shown) VH: EVQLLESGGGLVQPGGSLRLSCAASGFTFGGYSMYWVRQAPGKGLEWVSSIGGYYYSTYYADSVKGRFTISRDNSKNTLYLQMNSLRAEDTAVYYCARSYYGSIDYWGQGTLVTVSS VL: DIQMTQSPSSLSASVGDRVTITCRASQSISSYLNWYQQKPGKAPKLLIYAASSLQSGVPSRFSGSGSGTDFTLTISSLQPEDFATYYCQQGTGYGPLTFGQGTKLEIK ?
Found: 0.11

Lookup: Next up: 1620/1621 (antibody, V domains shown) VH: EVQLLESGGGLVQPGGSLRLSCAASGFTFSGYYMYWVRQAPGKGLEWVSGISSSGSYTYYADSVKGRFTISRDNSKNTLYLQMNSLRAEDTAVYYCARSVGPYFDYWGQGTLVTVSS VL: DIQMTQSPSSLSASVGDRVTITCRASQSISSYLNWYQQKPGKAPKLLIYAASSLQSGVPSRFSGSGSGTDFTLTISSLQPEDFATYYCQQGVGPYTFGQGTKLEIK
Found: 0.33

Lookup: Another binder to look at: 1202/1203 (antibody, V domains shown) VH: EVQLLESGGGLVQPGGSLRLSCAASGFTFYGSSMSWVRQAPGKGLEWVSSIYYGSSGTYYADSVKGRFTISRDNSKNTLYLQMNSLRAEDTAVYYCARSYYGYFDYWGQGTLVTVSS VL: DIQMTQSPSSLSASVGDRVTITCRASQSISSYLNWYQQKPGKAPKLLIYAASSLQSGVPSRFSGSGSGTDFTLTISSLQPEDFATYYCQQYYTVVPFTFGQGTKLEIK
Found: 0.05

Lookup: How about this binder: 1618/1619 (antibody, V domains shown) VH: EVQLLESGGGLVQPGGSLRLSCAASGFTFSYGSMYWVRQAPGKGLEWVSSISSGSGSTYYADSVKGRFTISRDNSKNTLYLQMNSLRAEDTAVYYCARSSYYGSYYSIDYWGQGTLVTVSS VL: DIQMTQSPSSLSASVGDRVTITCRASQSISSYLNWYQQKPGKAPKLLIYAASSLQSGVPSRFSGSGSGTDFTLTISSLQPEDFATYYCQQYYDNLPTFGQGTKLEIK
Found: 0.67

Lookup: Query 1200/1201 (antibody, V domains shown) VH: EVQLLESGGGLVQPGGSLRLSCAASGFTFSSYAMSWVRQAPGKGLEWVSGISGGGGGTYYADSVKGRFTISRDNSKNTLYLQMNSLRAEDTAVYYCARDVAYFDYWGQGTLVTVSS VL: DIQMTQSPSSLSASVGDRVTITCRASQSISSYLNWYQQKPGKAPKLLIYAASSLQSGVPSRFSGSGSGTDFTLTISSLQPEDFATYYCQQYYIPHTFGQGTKLEIK next
Found: 0.04
